Tested on: KB
Assay: Compound concentration required to reduce the exponential growth of KB cells by 50%
Format: functional
Conditions: Homo sapiens
compounds and their reported log10(CC50)
Each number you see is log10 of CC50, and the unit inside the log is µM.

Study these solved cases before continuing.
>>> recorded_measurement("CC[C@@]1(O)C(=O)OCc2c1cc1n(c2=O)Cc2cc3ccccc3nc2-1 [CAMPTOTHECIN]")
-2.22
>>> recorded_measurement("COc1cc(/C=C/C(=O)CC(=O)/C=C/c2ccc(O)c(OC)c2)ccc1O [CURCUMIN]")
1.20
>>> recorded_measurement("COc1ccc(/C=C/C(=O)/C=C/c2ccc(OC)c(OC)c2)cc1OC")
0.83
>>> recorded_measurement("O=C(/C=C/c1ccc(O)c(O)c1)/C=C/c1ccc(O)c(O)c1")
1.32
>>> recorded_measurement("Nc1nc[nH]n1 [AMITROLE]")
2.00
>>> recorded_measurement("O=C1/C(=C/c2ccc(O)c(O)c2)Cc2ccccc21")
0.96

// next entry
Give reported log10(CC50) value for `O=C1/C(=C/c2ccc(O)c(O)c2)CC/C1=C\c1ccc(O)c(O)c1`
1.23

----------
Listing: IC50 of selected compounds
Biological target: Human immunodeficiency virus type 1 integrase (Human immunodeficiency virus 1, UniProt Q7ZJM1)
Sequence (Q7ZJM1 whole entry): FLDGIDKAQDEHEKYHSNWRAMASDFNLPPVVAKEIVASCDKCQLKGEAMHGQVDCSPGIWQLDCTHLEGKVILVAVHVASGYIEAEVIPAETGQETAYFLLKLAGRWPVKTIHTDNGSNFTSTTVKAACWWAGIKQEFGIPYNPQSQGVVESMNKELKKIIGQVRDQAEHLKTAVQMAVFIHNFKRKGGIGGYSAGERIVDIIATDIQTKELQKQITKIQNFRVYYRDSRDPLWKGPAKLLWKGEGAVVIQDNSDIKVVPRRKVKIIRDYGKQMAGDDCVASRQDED
Experiment: Compound concentration required to reduce HIV-1 Integrase 3'-processing activity by 50%
Settings: read-out: IC50
Expressed in nM, but write only the number.

Solved cases (4 shown):
>>> recorded_measurement("O=C1/C(=C/c2ccc(O)c(O)c2)COC/C1=C\\c1ccc(O)c(O)c1")
200
>>> recorded_measurement("COc1cc(/C=C/C(=O)/C=C/c2ccc(O)c(OC)c2)ccc1O")
37000
>>> recorded_measurement("O=C1/C(=C/c2ccc(O)c(O)c2)CCC/C1=C\\c1ccc(O)c(O)c1")
900
>>> recorded_measurement("O=C1/C(=C/c2ccc(O)c(O)c2)CNC/C1=C\\c1ccc(O)c(O)c1")
200

Consider the compound `O=C(/C=C/c1ccc(O)c(O)c1)c1cccc(C(=O)/C=C/c2ccc(O)c(O)c2)c1` . State its measured IC50.
800

----------
Molecular target: Human immunodeficiency virus type 1 integrase (Human immunodeficiency virus 1, UniProt Q7ZJM1)
Assay: Compound concentration required to reduce HIV-1 Integrase 3'-processing activity by 50%
Settings: read-out: IC50
pIC50: −log10 of the molar value.
pIC50 of 5 or higher: TRUE. Under 5: FALSE.

The examples below pair each entry with its known result.
>>> assigned_label("O=C1C(=Cc2ccc(O)c(O)c2)C(=O)c2ccccc21")
"TRUE"
>>> assigned_label("O=C(/C=C/c1ccc(O)cc1)CC(=O)/C=C/c1ccc(O)cc1")
"FALSE"

Assess whether reported pIC50 for `COc1ccc(/C=C/C(=O)/C=C/c2ccc(OC)c(OC)c2)cc1OC` sits at 5 or higher.
FALSE

Item `O=C(/C=C/c1ccc(O)c(O)c1)c1ccccc1` with pIC50 of 5 or above?
TRUE

Can `O=C(/C=C/c1ccc(O)cc1)c1cccc(C(=O)/C=C/c2ccc(O)cc2)c1` be said to have pIC50 at or above 5?
FALSE

----------
Tested on: KB
Assay: Compound concentration required to reduce the exponential growth of KB cells by 50%
Type: functional
Settings: Homo sapiens
Measured Attribute: CC50 (µM)
Answer with a number only, understood to be in µM.

Some solved entries appear below for comparison.
>>> recorded_measurement("O=C(/C=C/c1ccc(O)c(O)c1)c1cccc(C(=O)/C=C/c2ccc(O)c(O)c2)c1")
5.8
>>> recorded_measurement("O=C1C(=Cc2ccc(O)c(O)c2)C(=O)c2ccccc21")
50
>>> recorded_measurement("O=C(/C=C/c1ccc(O)cc1)c1cccc(C(=O)/C=C/c2ccc(O)cc2)c1")
22
>>> recorded_measurement("O=C(/C=C/c1ccc(O)cc1)CC(=O)/C=C/c1ccc(O)cc1 [BISDEMETHOXYCURCUMIN]")
8.5
>>> recorded_measurement("O=C1/C(=C/c2ccc(O)c(O)c2)CSC/C1=C\\c1ccc(O)c(O)c1")
3.9
>>> recorded_measurement("O=C1/C(=C/c2ccc(O)c(O)c2)CNC/C1=C\\c1ccc(O)c(O)c1")
32
>>> recorded_measurement("O=C(/C=C(O)/C=C/c1ccc(O)c(O)c1)/C=C/c1ccc(O)c(O)c1")
4.1
>>> recorded_measurement("O=C(/C=C/c1ccc(O)c(O)c1)CCc1ccccc1")
30
>>> recorded_measurement("COc1cc(/C=C2\\CCC/C(=C\\c3ccc(O)c(OC)c3)C2=O)ccc1O [CYCLOVALONE]")
6.7
>>> recorded_measurement("O=C(/C=C/c1ccc(O)cc1)c1ccc(O)cc1O [ISOLIQUIRITIGENIN]")
12

Using KB as the test system, report measured CC50 of COc1cc([C@@H]2c3cc4c(cc3[C@@H](O[C@@H]3O[C@@H]5CO[C@@H](C)O[C@H]5[C@H](O)[C@H]3O)[C@H]3COC(=O)[C@H]23)OCO4)cc(OC)c1O [ETOPOSIDE] .
0.1

----------
Listed below: pIC50 values for each entry.
Target: Human immunodeficiency virus type 1 integrase (Human immunodeficiency virus 1)
Assay: Compound concentration required to reduce HIV-1 Integrase 3'-processing activity by 50%
Settings: read-out: IC50
By convention, pIC50 is the negative base-10 log of a molar concentration.

Worked cases, pIC50 given:
>>> recorded_measurement("COc1cc(/C=C/C(=O)CC(=O)/C=C/c2ccc(O)c(OC)c2)ccc1O")
4.52
>>> recorded_measurement("O=C(/C=C/c1ccc(O)c(O)c1)c1ccc(O)cc1")
5.89
>>> recorded_measurement("O=C(/C=C/c1ccc(O)c(O)c1)c1ccc(O)cc1O")
4.70
>>> recorded_measurement("O=C1/C(=C/c2ccc(O)c(O)c2)CC/C1=C\\c1ccc(O)c(O)c1")
6.00

Field: next compound
Give the measured pIC50 for `O=C(/C=C/c1ccc(O)c(O)c1)/C=C/c1ccc(O)c(O)c1`
6.22

----------
CC50 by entry:
System: KB
Assay: Compound concentration required to reduce the exponential growth of KB cells by 50%
Type: functional
Conditions: Homo sapiens
Give the value in µM but do not write µM after it.

Solved entries (count: 3):
>>> recorded_measurement("O=C(/C=C/c1ccc(O)c(O)c1)c1ccccc1")
3.1
>>> recorded_measurement("O=C(/C=C/c1ccc(O)cc1)/C=C/c1ccc(O)cc1")
7.4
>>> recorded_measurement("O=C(/C=C(O)/C=C/c1ccccc1)/C=C/c1ccccc1")
29

Then there is this molecule:
Input `O=C1/C(=C/c2ccc(O)c(O)c2)CCC/C1=C\c1ccc(O)c(O)c1` , output reported CC50.
8.9

These entries and their values trace back to ChEMBL document CHEMBL1131129.
